STUDY SYSTEM: SHP2 E76A protein (Homo sapiens, UniProt Q06124, E76A)
Sequence (Q06124 1-593 E76A): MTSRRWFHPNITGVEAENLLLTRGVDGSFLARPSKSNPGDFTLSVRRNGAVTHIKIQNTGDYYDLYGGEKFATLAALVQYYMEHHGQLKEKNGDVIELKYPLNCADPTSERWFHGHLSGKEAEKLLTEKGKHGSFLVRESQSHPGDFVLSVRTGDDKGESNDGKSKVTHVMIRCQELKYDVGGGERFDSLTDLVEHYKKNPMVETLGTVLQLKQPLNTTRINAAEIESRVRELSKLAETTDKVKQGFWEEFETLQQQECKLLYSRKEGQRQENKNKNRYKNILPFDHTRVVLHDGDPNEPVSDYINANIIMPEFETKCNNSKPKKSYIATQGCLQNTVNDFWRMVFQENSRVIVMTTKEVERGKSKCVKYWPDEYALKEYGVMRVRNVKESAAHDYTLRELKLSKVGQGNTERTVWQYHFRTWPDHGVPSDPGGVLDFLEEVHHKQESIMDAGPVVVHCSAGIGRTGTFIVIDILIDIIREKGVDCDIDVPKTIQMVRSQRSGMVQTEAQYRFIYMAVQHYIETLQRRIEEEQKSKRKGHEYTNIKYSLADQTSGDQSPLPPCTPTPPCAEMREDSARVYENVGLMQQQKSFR
ASSAY EXPLANATION: SHP2 enzyme activity inhibition test (DiFMUP substrate, fluorescence)
EXPERIMENTAL CONTEXT: 50 ng SHP2 E76A, 20 min with compound, then 10 uM DiFMUP 20 min at room temperature
ENDPOINT NAME: log10 of IC50 (log10 of the value in nM)
Could you please treat all values as log10 of IC50 in nM?

Examples with their reported log10 of IC50 follow.
COMPOUND	log10 of IC50
N[C@@H]1c2ncccc2CC12CCN(c1ncc(Sc3ccnc(Cl)c3Cl)c3nncn13)CC2 [Compound 9]	0.85
Nc1nccc(Sc2cnc(N3CCC4(CC3)Cc3ccccc3[C@H]4N)n3cnnc23)c1Cl [Compound 2]	0.60
Nc1nccc(Sc2cnc(N3CCC4(CC3)Cc3cccnc3[C@H]4N)n3cnnc23)c1Cl [Compound 11]	0.00
Nc1nccc(Sc2cnc(N3CCC4(CC3)Cc3cnccc3[C@H]4N)n3cnnc23)c1Cl [Compound 15]	0.48

Would you mind telling me what log10 of IC50 value was observed for Nc1nccc(Sc2cnc(N3CCC4(CC3)Cc3ncccc3[C@H]4N)n3cnnc23)c1Cl [Compound 3] ?
1.04

Please do the same for Nc1nccc(Sc2cnc(N3CCC4(CC3)Cc3ccncc3[C@H]4N)n3ccnc23)c1Cl [Compound 8] as well.
1.00

---

// values below are reported pIC50
System: MV4-11 cells
ASSAY EXPLANATION: MV4-11 cell proliferation inhibition experiment (CellTiter-Glo)
Format: cell-based
EXPERIMENTAL CONTEXT: Homo sapiens; MV4-11 cells, 72 h, CellTiter-Glo; read-out: Cell proliferation inhibition activity
Entry type: numeric. Quantity: pIC50, the -log10 of concentration in molar units.

COMPOUND	STUDY SYSTEM	MEASUREMENT
Nc1nccc(Sc2cnc(N3CCC4(CC3)Cc3ncccc3[C@H]4N)n3cnnc23)c1Cl [Compound 3]	MV4-11 cells	7.00

Would you mind telling me what pIC50 value was observed for Nc1nccc(Sc2cnc(N3CCC4(CC3)Cc3ncccc3[C@H]4N)n3ccnc23)c1Cl [Compound 6] ?
8.40

Please do the same for Nc1nccc(Sc2cnc(N3CCC4(CC3)Cc3ccncc3[C@H]4N)n3cnnc23)c1Cl [Compound 7] as well.
7.54

Please do the same for Nc1nccc(Sc2cnc(N3CCC4(CC3)Cc3ccccc3[C@H]4N)n3ccnc23)c1Cl [Compound 4] as well.
8.15
